# Test system: ACVRL1
# Stated Conditions: concentration: 1 μM, replicates: in singlicate; n = 1;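 further: KINOMEscan kinase panel screen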

[
  {
    "Molecule": "NS(=O)(=O)c1cccc(N/C=C2\\C(=O)Nc3ccc(S(=O)(=O)Cc4c(Cl)cccc4Cl)cc32)c1",
    "%Inh [%]": 0
  },
  {
    "Molecule": "COc1ccc(CSc2nnc(-c3ccc4nccn4c3)o2)cc1C(F)(F)F",
    "%Inh [%]": 21
  },
  {
    "Molecule": "Cn1cncc1-c1cc2c(Nc3ccc(OCc4ccccc4)cc3)ncnc2cn1",
    "%Inh [%]": 0
  },
  {
    "Molecule": "COC(=O)C(Cc1ccccc1)NC(=O)NC1CCN(c2ccnc(Nc3ccc(F)cc3)n2)C1 (stereo not drawn)",
    "%Inh [%]": 0
  },
  {
    "Molecule": "CC(=O)c1c(C)c2cnc(Nc3ccn(C)n3)nc2n(C2CCCC2)c1=O",
    "%Inh [%]": 0
  },
  {
    "Molecule": "O=C1NC(=O)C(c2ccc(Cl)cc2)=C1Nc1ccc(O)cc1",
    "%Inh [%]": 0
  },
  {
    "Molecule": "FC(F)(F)c1ccccc1-c1cc(-c2c[nH]nc2-c2ccccn2)ccn1",
    "%Inh [%]": 0
  },
  {
    "Molecule": "COc1ccc(Nc2nccc(NCCNC(=O)Nc3cc(C)ccc3C)n2)cc1",
    "%Inh [%]": 0
  },
  {
    "Molecule": "CC[C@@H]1CO[C@H](C(=O)Nc2ccccc2)CN1c1cc(-c2ccc3c(N)n[nH]c3c2)nc(NC)n1",
    "%Inh [%]": 0
  },
  {
    "Molecule": "COc1cc2ncnc(Nc3cccc(Br)c3)c2cc1OC.Cl",
    "%Inh [%]": 0
  },
  {
    "Molecule": "COc1cccc(C2=C(Nc3cc(Cl)c(O)c(Cl)c3)C(=O)NC2=O)c1",
    "%Inh [%]": 19
  },
  {
    "Molecule": "CN1c2ccc(-c3ccc(C(N)=O)cc3)cc2-c2[nH]ncc2S1(=O)=O",
    "%Inh [%]": 16
  }
]

---

# Test system: NDR1
# Construct: gene STK38
# Stated Conditions: concentration: 1 μM, replicates: in singlicate; n = 1
# %Inh listing for each entry below

[
  {
    "Molecule": "CNC(=O)c1ccc(C)c(-n2c(C)cc(OCc3ccc(F)cc3F)c(Br)c2=O)c1",
    "Uom": "%",
    "%Inh": 0
  },
  {
    "Molecule": "COc1ccc(CSc2nnc(-c3ccc4nccn4c3)o2)cc1C(F)(F)F",
    "Uom": "%",
    "%Inh": 14
  },
  {
    "Molecule": "CS(=O)(=O)CCNCc1nc(-c2ccc3ncnc(Nc4ccc5c(cnn5Cc5ccccc5)c4)c3c2)cs1.Cl.Cl",
    "Uom": "%",
    "%Inh": 8
  },
  {
    "Molecule": "NS(=O)(=O)c1cccc(N/C=C2\\C(=O)Nc3ccc(S(=O)(=O)Cc4c(Cl)cccc4Cl)cc32)c1",
    "Uom": "%",
    "%Inh": 0
  },
  {
    "Molecule": "COc1ccc(Nc2nccc(N3CCC(NC(=O)c4cc5ccccc5s4)C3)n2)cc1 (stereo not shown)",
    "Uom": "%",
    "%Inh": 0
  },
  {
    "Molecule": "CCn1c(-c2c(N)noc2C)nc2cnccc21",
    "Uom": "%",
    "%Inh": 0
  },
  {
    "Molecule": "Cc1ccc(NC(=O)Nc2ccccc2)cc1-c1ccc(C(=O)Nc2ccncc2)cc1",
    "Uom": "%",
    "%Inh": 24
  },
  {
    "Molecule": "Cc1ccc(-c2nc(Nc3ccncc3)c3ccccc3n2)s1",
    "Uom": "%",
    "%Inh": 0
  },
  {
    "Molecule": "Fc1ccc(-c2nc3n(c2-c2ccncc2)CCS3)cc1",
    "Uom": "%",
    "%Inh": 0
  },
  {
    "Molecule": "O=C1NC(=O)C(c2ccc(Cl)cc2)=C1Nc1ccc(O)cc1",
    "Uom": "%",
    "%Inh": 14
  }
]
